Measured target: MMP 13 (Homo sapiens, UniProt P45452)
Protocol summary: MMP 13 inhibition (HTS)
Format: biochemical
Condition parameters: 0.2 μM
Reported property: MMP 13 % inhibition at 0.2 μM (HTS) (%)
Expressed in %, but write only the number.

Reference set, count: 5
- N=C(N)NCCCC(C(=O)NO)S(=O)(=O)c1ccccc1Br (centres unmarked): 49
- O=C(CCC(Sc1ccc(Br)cc1)C(=O)NO)NO (centres unmarked): 25
- CCCCCCC(Sc1cccc(OC)c1)C(=O)NO (centres unmarked): 13
- CCCCCCCCC(C(=O)NO)[S+]([O-])c1cccc(OC)c1 (centres unmarked): 32
- CCCCCCCCC(C(=O)NO)S(=O)(=O)c1cccc(OC)c1 (centres unmarked): 69

Item under review: CCCCCCC(Sc1cc(Cl)ccc1Cl)C(=O)NO (centres unmarked) . Reported MMP 13 % inhibition at 0.2 μM (HTS)? 14

And what about the molecule CCCCCCCCC(C(=O)NO)S(=O)(=O)c1ccc(S(C)(=O)=O)cc1 (centres unmarked) ? 45

And what about the molecule CCCCCCC(Sc1nc2ccccc2[nH]1)C(=O)NO (centres unmarked) ? 21

And what about the molecule N=C(N)NCCCC(C(=O)NO)[S+]([O-])c1ccccc1Br (centres unmarked) ? 33

And what about the molecule CCCCCCC(Sc1ccc(OC)c(OC)c1)C(=O)NO (centres unmarked) ? 71

And what about the molecule COc1ccc(SC(C)C(=O)NO)cc1 (centres unmarked) ? 10
